Hey, just so you know, these numbers are from ChEMBL document CHEMBL1156887.

assay: Oral bioavailability in rat; type: ADME, organism-based; conditions: in vivo
Readout: bioavailability (%)
All answers are understood in %, so give the number only.

What value of bioavailability has been recorded for this entry: COc1ccc(CC(C)(C)NC[C@H](O)c2cc(O)cc3c2OCC(=O)N3)cc1 [OLODATEROL] 3

###

experiment: Lipophilicity, log D at pH 7.4; assay type: physicochemical; details: buffer
Readout: logD
Answer with the value's number alone.

What value of logD has been recorded for this entry: COc1ccc(CC(C)(C)NC[C@H](O)c2cc(O)cc3c2OCC(=O)N3)cc1 1.2

###

experiment: Apparent permeability from apical to basolateral side in human Caco-2 cells; format: ADME, cell-based
Readout: Papp A→B (nm/s)
All answers are understood in nm/s, so give the number only.

What value of Papp A→B has been recorded for this entry: COc1ccc(CC(C)(C)NC[C@H](O)c2cc(O)cc3c2OCC(=O)N3)cc1 3.5
